- Target entity: human TGFβ1, mature receptor-binding domain (human, UniProt P01137 279-390)
- Sequence (P01137 279-390 limits assumed): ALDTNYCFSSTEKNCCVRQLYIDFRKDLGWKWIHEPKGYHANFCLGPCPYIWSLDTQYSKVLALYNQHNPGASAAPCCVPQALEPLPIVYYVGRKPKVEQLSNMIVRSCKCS
- Protocol: cell-based or functional assay
# Lookup of reported HEKBlue TGFβ blocking IC50 keyed by entry

| Binder | HEKBlue TGFβ blocking IC50 |
| --- | --- |
| h4A11.v7.18 (antibody, human IgG1, kappa, N297G, V domains shown) VH: EVQLQESGPGLVKPSETLSLTCTVTGFSLSSYTVNWIRQPAGKGLEWIGYISYGGSAYYASWANGRVTISKDTSKNQVSLKLSSVTAADTAVYFCARHMQVGGAPTGSMAAFDPWGQGTLVTVSS VL: EIVLTQSPGTLSLSPGERATLSCQSSQSVYNNNYLSWFQQKPGQAPRLLIYGASTLTSGIPDRFSGSGSGTDFTLTISRLEPEDFAVYYCAGGYSGSSDKYAFGGGTKVEIKR | > 200 nM |
| 4A11 (antibody, V domains shown, anti-TGFβ2/3, recombinant rabbit monoclonal; some paragraphs print the H/L pair as 32/33; also called Rb1.4A11; Rbt 4A11) VH: QSLEESGGRLVTPGTPLTLTCTVSGFSLSSYTVNWVRQAPGKGLEWIGYISYGGSAYYASWANGRFTISKTSATVDLKITSPTTEDTATYFCARHMQVGGAPTGSMAAFDPWGPGTLVTVSS VL: AAVLTQTPSPVSAAVGGTVSISCQSSQSVYNNNYLSWFQQKPGQPPKLLIYGASTLTSGVPSRFKGSGSGTQFTLTISDVQCDDAATYYCAGGYSGSSDKYAFGGGTEVVVKG | > 200 nM |
| h4A11.v7.16 (antibody, human IgG1, kappa, N297G, V domains shown) VH: EVQLQESGPGLVKPSETLSLTCTVTGFSLSSYTVNWIRQPAGKGLEWIGYISYGGSAYYASWANGRVTISKDTSKNQFSLKLSSVTAADTAVYFCARHMQVGGAPTGSMAAFDPWGQGTLVTVSS VL: EIVLTQSPGTLSLSPGERATLSCQSSQSVYNNNYLSWFQQKPGQAPRLLIYGASTLTSGIPDRFSGSGSGTDFTLTISRLEPEDFAVYYCAGGYSGSSDKYAFGGGTKVEIKR | > 200 nM |
| h4A11.v7.17 (antibody, human IgG1, kappa, N297G, V domains shown) VH: EVQLQESGPGLVKPSETLSLTCTVTGFSLSSYTVNWIRQPAGKGLEWIGYISYGGSAYYASWANGRVTISKDTSKNQVSLKLSSVTAADTAVYYCARHMQVGGAPTGSMAAFDPWGQGTLVTVSS VL: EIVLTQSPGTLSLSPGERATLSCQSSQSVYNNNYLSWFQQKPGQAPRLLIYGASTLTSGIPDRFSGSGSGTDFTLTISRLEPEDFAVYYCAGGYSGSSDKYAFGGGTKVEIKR | > 200 nM |
| h4A11.v7.19 (antibody, human IgG1, kappa, N297G, V domains shown) VH: EVQLQESGPGLVKPSETLSLTCTVTGFSLSSYTVNWIRQPAGKGLEWIGYISYGGSAYYASWANGRVTISKDTSQVSLKLSSVTAADTAVYFCARHMQVGGAPTGSMAAFDPWGQGTLVTVSS VL: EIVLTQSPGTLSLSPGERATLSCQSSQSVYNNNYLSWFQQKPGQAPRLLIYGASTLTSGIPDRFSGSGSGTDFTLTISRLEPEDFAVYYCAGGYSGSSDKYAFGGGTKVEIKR | > 200 nM |
